Biological target: CDK4 (Homo sapiens, UniProt P11802+Q16531)
Sequence (P11802 2-303 limits assumed): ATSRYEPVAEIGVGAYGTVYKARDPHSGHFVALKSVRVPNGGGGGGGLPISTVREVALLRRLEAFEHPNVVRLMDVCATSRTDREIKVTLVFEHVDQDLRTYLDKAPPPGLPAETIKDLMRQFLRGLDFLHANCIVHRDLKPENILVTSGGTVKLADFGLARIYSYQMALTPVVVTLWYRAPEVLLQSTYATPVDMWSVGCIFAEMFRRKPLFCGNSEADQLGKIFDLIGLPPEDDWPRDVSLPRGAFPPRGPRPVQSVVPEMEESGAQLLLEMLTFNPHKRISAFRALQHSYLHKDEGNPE
Sequence (P24385 whole entry partner): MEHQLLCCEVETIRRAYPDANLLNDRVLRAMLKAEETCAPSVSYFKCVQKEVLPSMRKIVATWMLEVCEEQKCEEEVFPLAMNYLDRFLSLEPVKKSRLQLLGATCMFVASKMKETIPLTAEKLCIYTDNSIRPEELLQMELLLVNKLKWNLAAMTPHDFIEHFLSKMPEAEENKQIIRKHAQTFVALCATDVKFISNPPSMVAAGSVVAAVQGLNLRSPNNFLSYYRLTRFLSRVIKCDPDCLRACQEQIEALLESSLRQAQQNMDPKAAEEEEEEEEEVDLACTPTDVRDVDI
Sequence (Q16531 2-1140 limits assumed): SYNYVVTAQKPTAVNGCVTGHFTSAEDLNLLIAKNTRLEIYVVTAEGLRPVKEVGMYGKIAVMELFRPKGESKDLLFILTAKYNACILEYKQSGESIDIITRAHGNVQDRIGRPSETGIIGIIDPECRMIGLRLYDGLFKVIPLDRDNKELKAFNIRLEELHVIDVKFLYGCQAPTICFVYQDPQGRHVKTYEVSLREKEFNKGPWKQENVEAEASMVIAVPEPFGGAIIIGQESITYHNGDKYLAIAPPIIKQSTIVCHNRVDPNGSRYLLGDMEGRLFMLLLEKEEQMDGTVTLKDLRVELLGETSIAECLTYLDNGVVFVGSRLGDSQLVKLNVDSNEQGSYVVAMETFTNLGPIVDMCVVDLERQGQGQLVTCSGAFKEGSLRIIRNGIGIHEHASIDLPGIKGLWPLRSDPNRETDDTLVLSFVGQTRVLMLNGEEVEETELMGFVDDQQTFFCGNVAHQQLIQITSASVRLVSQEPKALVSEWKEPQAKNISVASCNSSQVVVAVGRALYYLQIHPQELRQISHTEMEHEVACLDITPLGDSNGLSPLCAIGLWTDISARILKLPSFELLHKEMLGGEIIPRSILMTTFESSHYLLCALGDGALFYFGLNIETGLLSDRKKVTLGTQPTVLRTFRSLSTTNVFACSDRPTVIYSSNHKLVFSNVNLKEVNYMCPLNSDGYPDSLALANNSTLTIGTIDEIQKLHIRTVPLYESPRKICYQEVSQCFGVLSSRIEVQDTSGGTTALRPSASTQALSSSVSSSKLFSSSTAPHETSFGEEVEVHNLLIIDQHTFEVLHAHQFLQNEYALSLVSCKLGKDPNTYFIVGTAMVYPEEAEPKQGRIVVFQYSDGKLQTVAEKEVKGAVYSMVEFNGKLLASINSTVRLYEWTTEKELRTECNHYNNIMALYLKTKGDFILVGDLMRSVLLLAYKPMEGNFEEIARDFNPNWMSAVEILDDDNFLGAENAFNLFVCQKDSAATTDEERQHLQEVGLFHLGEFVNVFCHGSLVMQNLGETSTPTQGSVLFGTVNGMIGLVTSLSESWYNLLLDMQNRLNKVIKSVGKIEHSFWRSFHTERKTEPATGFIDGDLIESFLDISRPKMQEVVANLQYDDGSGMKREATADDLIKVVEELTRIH
Assay: CDK4 percentage degradation in Calu-1 cells (Table 6)
Type: cell-based
Set-up: Cells that express cyclin D1-3 and CDK4/6 proteins were treated with heterobifunctional compounds; endogenous in cells; host or cells: Calu-1
Settings: 40 nM, 16 hours
Description: Calu-(cells were treated with heterobifunctional compounds at 40 nM or 200 nM for 16 hours A: protein percentage degradation […]; B: protein percentage degradation <80%, and ≥50%; C: protein percentage degradation <50%, and ≥30%; D; protein percentage degradation […]; -, data not available. Calu-1, T47D, MCF7, HCC1428 and other cells were cultured at 37° C. with 5% CO2 in RPMI 1640 or DMEM medium supplemented with 10% fetal bovine serum. […]
reported endpoint: inhibition at 0.04 µM

// worked examples, inhibition at 0.04 µM included
- CNc1ccc(C(=O)Nc2ccc(N(C)C)nn2)c(NC2CC(CCC(=O)N3CCN(c4ccc(Nc5ncc6c(C)c(C(C)=O)c(=O)n(C7CCCC7)c6n5)nc4)CC3)C2)n1 (centres unmarked) [CPD-185]: < 30%
- CNc1ccc(C(=O)Nc2ccc3c(n2)CCC3)c(NCCCCCNC(=O)CN2CCN(c3ccc(Nc4ncc5c(C)c(C(C)=O)c(=O)n(C6CCCC6)c5n4)nc3)CC2)n1 [CPD-40]: 50 to 80%
- CNc1ccc(C(=O)Nc2ccc(N(C)C)nn2)c(NCCCCCCCNC(=O)CN2CCN(c3ccc(Nc4ncc5c(C)c(C(C)=O)c(=O)n(C6CCCC6)c5n4)nc3)CC2)n1 [CPD-10]: 50 to 80%
- CNc1ccc(C(=O)Nc2ccc(N(C)C)cn2)c(NCCCCCNC(=O)CN2CCN(c3ccc(Nc4ncc5c(C)c(C(C)=O)c(=O)n(C6CCCC6)c5n4)nc3)CC2)n1 [CPD-47]: < 30%

Q: Fill in the blank: the reported inhibition at 0.04 µM of CNc1ccc(C(=O)Nc2ccc(N(C)C)nn2)c(NC2CC(CNC(=O)CCN3CCN(c4ccc(Nc5ncc6c(C)c(C(C)=O)c(=O)n(C7CCCC7)c6n5)nc4)CC3)C2)n1 (centres unmarked) [CPD-80] is ____.
A: 50 to 80%
